# Read-out: Cytochrome P450 2C19 (Homo sapiens) (UniProt P33261)
# Sequence (P33261 whole entry, looked up): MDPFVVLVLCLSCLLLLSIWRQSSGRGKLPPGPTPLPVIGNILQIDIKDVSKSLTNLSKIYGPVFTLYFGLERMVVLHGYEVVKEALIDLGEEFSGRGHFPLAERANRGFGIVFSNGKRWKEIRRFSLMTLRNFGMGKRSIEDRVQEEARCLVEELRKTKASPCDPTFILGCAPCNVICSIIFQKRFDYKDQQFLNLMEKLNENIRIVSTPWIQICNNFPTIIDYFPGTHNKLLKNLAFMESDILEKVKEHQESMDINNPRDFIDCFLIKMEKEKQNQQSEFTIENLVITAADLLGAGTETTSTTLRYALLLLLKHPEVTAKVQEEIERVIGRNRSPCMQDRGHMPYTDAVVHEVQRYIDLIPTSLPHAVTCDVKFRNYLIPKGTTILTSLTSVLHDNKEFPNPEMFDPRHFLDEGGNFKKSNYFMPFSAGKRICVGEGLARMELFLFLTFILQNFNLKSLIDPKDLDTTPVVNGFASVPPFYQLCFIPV
# assay name: LTEA_HepaRG_CYP2C19: Life Technologies and Expression Analysis (LTEA) Assay for CYP2C19 using HepaRG (AID 2283482)
# measurement parameters: mRNA level, 48 h; actives raise or lower the signal
The source made the active and inactive calls. Rule for the calls: active = hit-call score of the fitted dose curve at least 0.9, where 1 is the maximum; inactive = score below 0.9.
Can you answer with just one of these options? active, inactive

Query: State the result this test recorded for CC(C)C1(C)N=C(c2nc3ccccc3cc2C(=O)O)NC1=O (stereo not drawn) .
Result: active

Query: State the result this test recorded for Cc1c(F)c(F)c(COC(=O)C2C(/C=C(\Cl)C(F)(F)F)C2(C)C)c(F)c1F (stereo not drawn) .
Result: inactive

Query: State the result this test recorded for N#CC(CCc1ccc(Cl)cc1)(Cn1cncn1)c1ccccc1 (stereo not drawn) .
Result: active

Query: State the result this test recorded for CCOC(=O)C(Cl)Cc1cc(-n2nc(C)n(C(F)F)c2=O)c(F)cc1Cl (stereo not drawn) .
Result: active

Query: State the result this test recorded for C#CCOS(=O)OC1CCCCC1Oc1ccc(C(C)(C)C)cc1 (stereo not drawn) .
Result: active

Query: State the result this test recorded for OC(c1ccc(Cl)cc1)(c1cncnc1)c1ccccc1Cl (stereo not drawn) .
Result: active

Query: State the result this test recorded for CCCCOC(=O)c1ccccc1C(=O)OCCCC .
Result: inactive

Query: State the result this test recorded for N#Cc1nn(-c2c(Cl)cc(C(F)(F)F)cc2Cl)c(N)c1S(=O)C(F)(F)F (stereo not drawn) .
Result: active

Query: State the result this test recorded for CC(C)Oc1cc(-n2nc(C(C)(C)C)oc2=O)c(Cl)cc1Cl .
Result: active

Query: State the result this test recorded for CCCC1COC(Cn2cncn2)(c2ccc(Cl)cc2Cl)O1 (stereo not drawn) .
Result: active

Query: State the result this test recorded for O=C(Nc1ccccc1)Nc1ccnc(Cl)c1 .
Result: active

Query: State the result this test recorded for CNC(=O)ON=CC(C)(C)SC .
Result: inactive

Query: State the result this test recorded for CNC(=S)S .
Result: inactive

Query: State the result this test recorded for Oc1ccccc1-c1ccccc1 .
Result: inactive

Query: State the result this test recorded for O=C(O)COc1nc(Cl)c(Cl)cc1Cl .
Result: active

Query: State the result this test recorded for O=C(O)c1nc(Cl)ccc1Cl .
Result: inactive

Query: State the result this test recorded for COC(=O)c1ccccc1C(=O)OC .
Result: inactive

Query: State the result this test recorded for COc1ccc(C(c2ccc(OC)cc2)C(Cl)(Cl)Cl)cc1 .
Result: active

Query: State the result this test recorded for Fc1ccc(Oc2ccnc3cc(Cl)cc(Cl)c23)cc1 .
Result: inactive

Query: State the result this test recorded for CC1COC(Cn2cncn2)(c2ccc(Oc3ccc(Cl)cc3)cc2Cl)O1 (stereo not drawn) .
Result: active

Query: State the result this test recorded for CC1=C(C(=O)Nc2ccccc2)SCCO1 .
Result: inactive

Query: State the result this test recorded for C=CC1(C)OC(=O)N(c2cc(Cl)cc(Cl)c2)C1=O (stereo not drawn) .
Result: active

Query: State the result this test recorded for COP(N)(=O)SC (stereo not drawn) .
Result: inactive

Query: State the result this test recorded for CCCCC(CC)COC(=O)c1ccccc1C(=O)OCC(CC)CCCC (stereo not drawn) .
Result: inactive

Query: State the result this test recorded for Cc1ccc(-c2c(Cl)nc(C#N)n2S(=O)(=O)N(C)C)cc1 .
Result: active

Query: State the result this test recorded for COP(=S)(OC)Oc1nc(Cl)c(Cl)cc1Cl .
Result: inactive

Query: State the result this test recorded for CON(C)C(=O)Nc1ccc(Cl)c(Cl)c1 .
Result: active

Query: State the result this test recorded for CCCCNC(=O)n1c(NC(=O)OC)nc2ccccc21 .
Result: inactive
